Reference for the values: PubChem BioAssay AID1159580

test: chemical genetic growth profiling, strain panel (AID 1159580);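 further: tested at 20 µM; growth read once vehicle control cultures reached saturation at 30 °C; 1 = growth at the plate median or of vehicle wells; lower values mean less growth of the strain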; settings: S. cerevisiae deletion strains, growth OD, locus YMR205C, strain PFK2, hits give low values
In all, about 5,500 compounds went through this assay and about 2,000 (36%) were called active. About 18% were inconclusive and are not listed. The list shows a part of the results.
Measured Endpoint: normalized growth
// keep it numeric: no unit symbol after the value

Past entries and their recorded results:
**Query** # lookup: normalized growth of CCCC(CCC)C(=O)O
**Result** 1.02

**Query** # lookup: normalized growth of NC(=O)c1ncn(C2O[C@H](CO)[C@@H](O)[C@H]2O)c1N (some centres undefined)
**Result** 1.07

**Query** # lookup: normalized growth of CN(C)CCC(c1ccc(Br)cc1)c1ccccn1 (centres undefined)
**Result** 0.997

**Query** # lookup: normalized growth of CC[C@H](CCC(C)[C@H]1CCC2C3CCC4C[C@@H](O)CC[C@]4(C)C3CC[C@@]21C)C(C)C (some centres undefined)
**Result** 1.01

**Query** # lookup: normalized growth of CCOC(=O)[C@H](CCc1ccccc1)N[C@@H](C)C(=O)N1Cc2ccccc2C[C@H]1C(=O)O
**Result** 1

**Query** # lookup: normalized growth of C[C@H](CCC(=O)O)[C@H]1CCC2C3C(CC[C@@]21C)[C@@]1(C)CC[C@@H](O)C[C@H]1C[C@@H]3O (some centres undefined)
**Result** 0.985

**Query** # lookup: normalized growth of Cc1nc2ccccn2c(=O)c1CCN1CCC(C(=O)c2ccc(F)cc2)CC1
**Result** 0.985

**Query** # lookup: normalized growth of CC(CCC(=O)O)[C@H]1CCC2C3CC[C@@H]4C[C@H](O)CC[C@]4(C)C3CC[C@@]21C (some centres undefined)
**Result** 0.854

**Query** # lookup: normalized growth of NS(=O)(=O)c1cc2c(cc1Cl)NC(C1CC3C=CC1C3)NS2(=O)=O (centres undefined)
**Result** 0.951

**Query** # lookup: normalized growth of CC(C)CCCC(C)C1CCC2C3CC[C@H]4CCCC[C@]4(C)C3CC[C@]12C (some centres undefined)
**Result** 1.04

More entries:
**Query** # lookup: normalized growth of CC(=O)Nc1ccccc1
**Result** 0.969

**Query** # lookup: normalized growth of COc1cc([C@@H]2c3cc4c(cc3[C@H](OC(C)=O)[C@H]3COC(=O)[C@@H]23)OCO4)cc(OC)c1OC
**Result** 0.995
